TEST: in vitro
Format: in vitro ADME
ASSAY SETUP: mouse, microsomes, Liver microsomes, % remaining after 1 hr (mouse)
OBSERVATION TYPE: remaining at 1 h, 1 μM

Request: Entry Cc1nc2ccc(Cl)cn2c1C(=O)NCCCC1CCCCC1 : reported remaining at 1 h, 1 μM = ?
Result: ~0.15%

----------
TARGET OR TEST SYSTEM: CYP2C9 (Homo sapiens, UniProt P11712)
Sequence (P11712 whole entry): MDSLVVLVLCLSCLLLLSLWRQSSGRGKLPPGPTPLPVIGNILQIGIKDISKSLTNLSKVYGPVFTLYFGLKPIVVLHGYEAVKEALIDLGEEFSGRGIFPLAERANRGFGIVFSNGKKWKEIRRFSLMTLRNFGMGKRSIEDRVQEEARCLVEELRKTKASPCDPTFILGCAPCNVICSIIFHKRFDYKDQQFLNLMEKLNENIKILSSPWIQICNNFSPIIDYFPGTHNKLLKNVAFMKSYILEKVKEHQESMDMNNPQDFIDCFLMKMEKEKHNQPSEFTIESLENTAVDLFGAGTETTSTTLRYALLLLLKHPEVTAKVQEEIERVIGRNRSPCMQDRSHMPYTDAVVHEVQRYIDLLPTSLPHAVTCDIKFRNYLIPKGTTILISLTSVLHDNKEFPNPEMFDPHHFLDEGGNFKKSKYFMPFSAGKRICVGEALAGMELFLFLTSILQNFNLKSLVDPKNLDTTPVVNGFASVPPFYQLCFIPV
TEST: CYP inhibition, CYP2C9
Format: in vitro ADME
OBSERVATION TYPE: inhibition at 10 µM (%)
Give just the numeric value; % need not be written.

Request: Param readout = inhibition at 10 µM; param system = CYP2C9 (Homo sapiens, UniProt P11712); param query = Cc1nc2ccc(Cl)cn2c1C(=O)NCCCC1CCCCC1 ; response: value
Result: 32.2

----------
TEST: in vitro
Type: in vitro ADME
ASSAY SETUP: mouse, plasma
OBSERVATION TYPE: fraction unbound
Give the figure by itself; no unit, no explanation.

Request: Bench note: what fraction unbound did Cc1nc2ccc(Cl)cn2c1C(=O)NCCCC1CCCCC1 show?
Result: 0.0036

----------
TARGET OR TEST SYSTEM: CYP1A2 (Homo sapiens, UniProt P05177)
Sequence (P05177 whole entry): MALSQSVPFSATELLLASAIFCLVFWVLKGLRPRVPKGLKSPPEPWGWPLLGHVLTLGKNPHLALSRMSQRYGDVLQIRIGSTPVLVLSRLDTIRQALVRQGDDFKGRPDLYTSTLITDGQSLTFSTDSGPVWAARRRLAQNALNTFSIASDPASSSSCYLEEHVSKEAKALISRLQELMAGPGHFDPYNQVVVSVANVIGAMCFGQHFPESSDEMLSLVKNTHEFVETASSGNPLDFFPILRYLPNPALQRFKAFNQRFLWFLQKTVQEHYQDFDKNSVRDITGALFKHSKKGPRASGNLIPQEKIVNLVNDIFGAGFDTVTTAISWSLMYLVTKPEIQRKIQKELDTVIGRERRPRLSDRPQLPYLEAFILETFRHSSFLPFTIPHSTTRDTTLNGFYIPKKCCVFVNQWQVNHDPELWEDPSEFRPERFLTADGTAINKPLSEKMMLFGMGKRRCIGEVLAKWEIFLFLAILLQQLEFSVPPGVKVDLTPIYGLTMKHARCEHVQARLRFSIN
TEST: CYP inhibition, CYP1A2
Type: in vitro ADME
OBSERVATION TYPE: inhibition at 10 µM (%)
# number only, unit % dropped from output

Request: Which inhibition at 10 µM value belongs to Cc1nc2ccc(Cl)cn2c1C(=O)NCCCC1CCCCC1 [Compound 16] ?
Result: 26.3

----------
TEST: in vitro
Type: in vitro ADME
ASSAY SETUP: human, microsomes, Liver microsomes, % remaining after 1 hr (human)
OBSERVATION TYPE: remaining at 1 h, 1 μM

Request: Looking for the measured remaining at 1 h, 1 μM of Cc1nc2ccc(Cl)cn2c1C(=O)NCCCC1CCCCC1 , can you help?
Result: ~1.5%

----------
TEST: in vitro
Type: in vitro ADME
ASSAY SETUP: human, hepatocytes
OBSERVATION TYPE: remaining at 2 h, 1 μM (%)
Quick reminder: number only, in %, skip the unit.

Request: Param item = Cc1nc2ccc(Cl)cn2c1C(=O)NCCCC1CCCCC1 ; retrieve measured remaining at 2 h, 1 μM.
Result: 0.19

----------
TARGET OR TEST SYSTEM: CYP3A4 (Homo sapiens, UniProt P08684)
Sequence (P08684 whole entry): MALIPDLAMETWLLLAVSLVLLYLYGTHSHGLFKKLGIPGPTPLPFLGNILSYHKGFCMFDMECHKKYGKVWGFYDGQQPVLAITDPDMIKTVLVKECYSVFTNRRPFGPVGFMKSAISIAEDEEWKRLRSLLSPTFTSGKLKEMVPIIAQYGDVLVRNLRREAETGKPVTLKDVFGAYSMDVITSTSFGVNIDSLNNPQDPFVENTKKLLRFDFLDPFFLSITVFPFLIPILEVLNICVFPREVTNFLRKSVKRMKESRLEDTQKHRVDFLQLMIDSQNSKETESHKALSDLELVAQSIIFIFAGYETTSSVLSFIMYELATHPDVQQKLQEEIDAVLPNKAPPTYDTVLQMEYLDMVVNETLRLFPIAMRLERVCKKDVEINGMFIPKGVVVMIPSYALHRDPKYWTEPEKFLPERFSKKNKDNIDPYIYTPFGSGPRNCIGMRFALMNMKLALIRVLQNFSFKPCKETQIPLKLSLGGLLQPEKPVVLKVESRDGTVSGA
TEST: CYP inhibition, CYP3A4
Format: in vitro ADME
ASSAY SETUP: probe midazolam
OBSERVATION TYPE: inhibition at 10 µM (%)
# value in %; strip the unit string

Request: Name the recorded inhibition at 10 µM for Cc1nc2ccc(Cl)cn2c1C(=O)NCCCC1CCCCC1 .
Result: 52.2
